# test.system: AGO2 WT (phosphosite mutant background) (Homo sapiens, UniProt Q9UKV8 1-859, S387D;S824A;S828D;S831D;S834A)
# Sequence (Q9UKV8 whole entry S387D/S824A/S828D/S831D/S834A): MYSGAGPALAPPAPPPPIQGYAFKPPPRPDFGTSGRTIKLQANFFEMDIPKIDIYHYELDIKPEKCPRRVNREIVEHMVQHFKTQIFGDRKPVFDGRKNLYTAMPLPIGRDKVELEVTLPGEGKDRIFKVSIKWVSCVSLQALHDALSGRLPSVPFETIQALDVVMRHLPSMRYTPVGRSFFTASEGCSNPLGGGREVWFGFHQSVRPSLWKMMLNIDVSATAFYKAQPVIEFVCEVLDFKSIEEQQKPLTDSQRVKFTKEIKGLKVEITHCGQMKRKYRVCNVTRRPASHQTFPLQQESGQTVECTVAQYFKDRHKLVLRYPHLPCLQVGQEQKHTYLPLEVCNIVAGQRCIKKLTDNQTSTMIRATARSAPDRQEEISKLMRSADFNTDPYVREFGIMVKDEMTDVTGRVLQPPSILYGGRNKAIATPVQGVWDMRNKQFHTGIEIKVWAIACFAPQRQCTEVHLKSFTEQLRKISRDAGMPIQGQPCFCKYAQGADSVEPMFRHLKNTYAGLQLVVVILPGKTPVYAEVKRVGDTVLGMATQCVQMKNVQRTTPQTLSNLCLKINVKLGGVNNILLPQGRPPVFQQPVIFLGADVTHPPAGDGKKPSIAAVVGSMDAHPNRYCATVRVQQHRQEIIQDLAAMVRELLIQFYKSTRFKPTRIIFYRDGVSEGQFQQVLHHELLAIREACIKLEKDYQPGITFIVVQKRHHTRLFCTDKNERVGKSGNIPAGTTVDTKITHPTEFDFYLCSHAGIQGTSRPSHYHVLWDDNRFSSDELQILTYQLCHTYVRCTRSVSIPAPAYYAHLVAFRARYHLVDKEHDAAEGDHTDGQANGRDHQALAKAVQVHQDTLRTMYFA
# measurement.notes: RNA Bind-n-Seq (nitrocellulose filter binding and sequencing); miR-122 guide loaded in AGO2; 60 min incubation; 30 mM Tris pH 8.0, 100 mM potassium acetate, 2 mM magnesium acetate, 0.5 mM TCEP, 0.005% NP-40, 0.01 mg/ml yeast tRNA; 3 nM AGO2-miR-122, 100 nM RNA library; 60; high values mean tight binding
# assay.setup: protein: recombinant; tags: His6 (N-terminal, pFastBac HTA)
quantity.name: binding signal

// worked examples, binding signal included
>  <binder>
GTATTCCA (ssRNA, constant regions annealed to DNA blockers; guide miR-122 5' phosphate) RNA 1: GAGUUCUACAGUCCGACGAUCCCAACGUAUUCCACACCUGGAAUUCUCGGGUGCCAA RNA 2: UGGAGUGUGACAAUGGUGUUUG DNA 1: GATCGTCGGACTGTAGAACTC DNA 2: TTGGCACCCGAGAATTCCA

>  <measured.result>
0.18 fold enrichment over input

$$$$
>  <binder>
GCACTCTA (ssRNA, constant regions annealed to DNA blockers; guide miR-122 5' phosphate) RNA 1: GAGUUCUACAGUCCGACGAUCCCAACGCACUCUACACCUGGAAUUCUCGGGUGCCAA RNA 2: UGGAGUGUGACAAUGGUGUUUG DNA 1: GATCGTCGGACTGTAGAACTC DNA 2: TTGGCACCCGAGAATTCCA

>  <measured.result>
0.168 fold enrichment over input

$$$$

Dear colleague, could you send me binding signal for each of the items below? Thanks.
1. ATACTTTA (ssRNA, constant regions annealed to DNA blockers; guide miR-122 5' phosphate) RNA 1: GAGUUCUACAGUCCGACGAUCCCAACAUACUUUACACCUGGAAUUCUCGGGUGCCAA RNA 2: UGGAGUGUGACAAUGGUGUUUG DNA 1: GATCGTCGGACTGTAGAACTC DNA 2: TTGGCACCCGAGAATTCCA
2. GCGTCTCA (ssRNA, constant regions annealed to DNA blockers; guide miR-122 5' phosphate) RNA 1: GAGUUCUACAGUCCGACGAUCCCAACGCGUCUCACACCUGGAAUUCUCGGGUGCCAA RNA 2: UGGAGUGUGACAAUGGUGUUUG DNA 1: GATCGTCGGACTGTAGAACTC DNA 2: TTGGCACCCGAGAATTCCA
3. ACACTCTG (ssRNA, constant regions annealed to DNA blockers; guide miR-122 5' phosphate) RNA 1: GAGUUCUACAGUCCGACGAUCCCAACACACUCUGCACCUGGAAUUCUCGGGUGCCAA RNA 2: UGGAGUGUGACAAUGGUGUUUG DNA 1: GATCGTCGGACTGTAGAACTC DNA 2: TTGGCACCCGAGAATTCCA
4. ACATCCCG (ssRNA, constant regions annealed to DNA blockers; guide miR-122 5' phosphate) RNA 1: GAGUUCUACAGUCCGACGAUCCCAACACAUCCCGCACCUGGAAUUCUCGGGUGCCAA RNA 2: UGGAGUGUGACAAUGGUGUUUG DNA 1: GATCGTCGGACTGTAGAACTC DNA 2: TTGGCACCCGAGAATTCCA

# output
1: 0.121 fold enrichment over input; 2: 0.14 fold enrichment over input; 3: 0.933 fold enrichment over input; 4: 0.128 fold enrichment over input

Could you report binding signal for every entry in the following list?
1. ATGTCTTA (ssRNA, constant regions annealed to DNA blockers; guide miR-122 5' phosphate) RNA 1: GAGUUCUACAGUCCGACGAUCCCAACAUGUCUUACACCUGGAAUUCUCGGGUGCCAA RNA 2: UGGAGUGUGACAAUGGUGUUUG DNA 1: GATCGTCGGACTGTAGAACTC DNA 2: TTGGCACCCGAGAATTCCA
2. GTGTCCCA (ssRNA, constant regions annealed to DNA blockers; guide miR-122 5' phosphate) RNA 1: GAGUUCUACAGUCCGACGAUCCCAACGUGUCCCACACCUGGAAUUCUCGGGUGCCAA RNA 2: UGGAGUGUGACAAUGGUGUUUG DNA 1: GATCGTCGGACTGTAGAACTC DNA 2: TTGGCACCCGAGAATTCCA
3. ACGTTTCA (ssRNA, constant regions annealed to DNA blockers; guide miR-122 5' phosphate) RNA 1: GAGUUCUACAGUCCGACGAUCCCAACACGUUUCACACCUGGAAUUCUCGGGUGCCAA RNA 2: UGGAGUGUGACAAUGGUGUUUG DNA 1: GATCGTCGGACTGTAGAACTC DNA 2: TTGGCACCCGAGAATTCCA
4. ATATCTCA (ssRNA, constant regions annealed to DNA blockers; guide miR-122 5' phosphate) RNA 1: GAGUUCUACAGUCCGACGAUCCCAACAUAUCUCACACCUGGAAUUCUCGGGUGCCAA RNA 2: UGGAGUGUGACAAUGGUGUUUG DNA 1: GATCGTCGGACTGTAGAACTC DNA 2: TTGGCACCCGAGAATTCCA
5. ACACTCCA (ssRNA, constant regions annealed to DNA blockers; guide miR-122 5' phosphate) RNA 1: GAGUUCUACAGUCCGACGAUCCCAACACACUCCACACCUGGAAUUCUCGGGUGCCAA RNA 2: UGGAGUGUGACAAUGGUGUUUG DNA 1: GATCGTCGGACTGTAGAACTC DNA 2: TTGGCACCCGAGAATTCCA

# output
1. 0.142 fold enrichment over input
2. 0.125 fold enrichment over input
3. 0.146 fold enrichment over input
4. 0.165 fold enrichment over input
5. 229 fold enrichment over input
